# maps each entry to its TGI
# Tested on: SNB-19 CNS
# measurement protocol: NCI tumour cell line growth inhibition, 48 h

# compound, TGI
data = [
    ("CC#CC(O)(C(=O)OC1CC(C)N(C)C(C)(C)C1)C1CCCC1 (stereo not drawn)", "> 100 µM"),
    ("COc1cc(CNc2nc3ccc(C(F)(F)F)cc3nc2-c2ccccc2)cc(OC)c1OC", "> 100 µM"),
    ("Cc1c(-c2ccccc2)[nH]n(C2=NCCN2)c1=O", "> 100 µM"),
]

###

# System: HL-60(TB) leukemia
# measurement protocol: NCI tumour cell line growth inhibition, 48 h
readout name: TGI

# molecule, measured value
data = [
    ("O=C1[C@H]2ON(c3ccccc3)C(c3ccco3)[C@H]2C(=O)N1c1ccc(Cc2ccc(N3C(=O)[C@@H]4ON(c5ccccc5)C(c5ccco5)[C@@H]4C3=O)cc2)cc1 (stereo partly drawn)", "> 100 µM"),
    ("CON(C)C(=O)C1CCCO1 (stereo not drawn)", "> 100 µM"),
    ("O=C1C2=C(CCC2)Nc2cccc3ncn1c23", "> 100 µM"),
]
